Test system: K562 CRISPRi cells
experiment_notes: Perturb-seq pooled growth measurement (sgRNA counts, growth phenotype γ, relative activity)
Assay type: cell-based, human
experimental_parameters: γ relative to perfectly matched sgRNA (_00) of the same gene, day 5
parameter_measured: relative_activity_day5

In [3]: df
Out[3]:
                                   substance              system  numeric_readout
 0  HSPE1_ + _198365089.23-P1P2_14 (guide GGAGACTCGCAGTCCTGCCC; listed as DNA, chemistry not fully specified)  K562 CRISPRi cells           0.2975
 1  HSPA9_ −_137911079.23-P1P2_07 (guide GGAGCTGCGGGATGCGGTGG; listed as DNA, chemistry not fully specified)  K562 CRISPRi cells           0.8537
 2  POLR2H_ + _184081251.23-P1P2_00 (guide GGGGCCACGAGAGCAGCAGA; listed as DNA, chemistry not fully specified)  K562 CRISPRi cells                1
 3  SEC61A1_ −_127771295.23-P1_01 (guide GGCACTGTCGTGTCTCTCGG; listed as DNA, chemistry not fully specified)  K562 CRISPRi cells           0.4556
 4  GINS1_ −_25388381.23-P1P2_14 (guide GGACTAGAACGAAAGGAGCG; listed as DNA, chemistry not fully specified)  K562 CRISPRi cells           0.3537
 5  COX11_ + _53045977.23-P1P2_05 (guide GGCTCTGGCGTCTTGGATGG; listed as DNA, chemistry not fully specified)  K562 CRISPRi cells           0.3055
 6  CDC23_ −_137548987.23-P1P2_00 (guide GACAGCCACCGGGACCATGG; listed as DNA, chemistry not fully specified)  K562 CRISPRi cells                1
 7  CDC23_ −_137548987.23-P1P2_02 (guide GACAGCTACCGGGACCATGG; listed as DNA, chemistry not fully specified)  K562 CRISPRi cells           0.9238
 8  TUBB_ + _30688126.23-P1_01 (guide GCAGCAGGAAGGTTCTGAGA; listed as DNA, chemistry not fully specified)  K562 CRISPRi cells            1.032
 9  GINS1_ −_25388381.23-P1P2_00 (guide GGACTAGAACGAAAGGAGTG; listed as DNA, chemistry not fully specified)  K562 CRISPRi cells                1
10  DBR1_ + _137893744.23-P1P2_05 (guide GTTTGCAGGAGTGTACACCC; listed as DNA, chemistry not fully specified)  K562 CRISPRi cells           0.6809
11  POLR2H_ + _184081251.23-P1P2_11 (guide GGGGCCACGAGAGCAGCGGA; listed as DNA, chemistry not fully specified)  K562 CRISPRi cells           0.8672

====

System: K562 CRISPRi cells
experiment_notes: Perturb-seq pooled growth measurement (sgRNA counts, growth phenotype γ, relative activity)
Assay type: cell-based, human
experimental_parameters: γ relative to perfectly matched sgRNA (_00) of the same gene, day 10
parameter_measured: relative_activity_day10

                                  substance  numeric_readout
0  HSPE1_ + _198365089.23-P1P2_14 (guide GGAGACTCGCAGTCCTGCCC; listed as DNA, chemistry not fully specified)           0.3465
1  HSPA5_ + _128003624.23-P1P2_00 (guide GAGCCGAGTAGGCGACGGTG; listed as DNA, chemistry not fully specified)                1
2  HSPA5_ + _128003624.23-P1P2_06 (guide GAGCCGAGTAGACGACGGTG; listed as DNA, chemistry not fully specified)           0.2302
